Origin of the recorded values: patent US5834244

Molecular target: TF-FVIIa complex in the PT assay (full length TF on 293 cell membranes with the Factor VII/VIIa of normal … (human, UniProt P08709))
Experiment: cell-based or functional assay
No end group written: not given here.
Parameter Measured: fold prolongation of clotting time, PT assay in normal human plasma

Input IV-49C (designed binder) VREVCSEQAEPGPCRALMKRWYFDVTEGKCAPFIYGGCYGNRNNFDTEEYCAAVCGSA . Output fold prolongation of clotting time, PT assay in normal human plasma: 2.5 fold prolongation at 40 µM inhibitor

Input APPI, Alzheimer's amyloid β-protein precursor inhibitor (other, not fully specified (bridges); ends and bridges not checked) VREVCSEQAETGPCRAMISRWYFDVTEGKCAPFFYGGCGGNRNNFDTEEYCMAVCGSA . Output fold prolongation of clotting time, PT assay in normal human plasma: 1.5 fold prolongation at 40 µM inhibitor

Input IV-54C (designed binder) VREVCSEQAEPGPCRALMKRWYFDVTEGKCAPFVYGGCYGNRNNFDTEEYCAAVCGSA . Output fold prolongation of clotting time, PT assay in normal human plasma: 2.1 fold prolongation at 40 µM inhibitor

Input IV-32B (designed binder) VREVCSEQAEPGPCKALMKRWYFDVTEGKCAPFYYGGCYGNRNNFDTEEYCAAVCGSA . Output fold prolongation of clotting time, PT assay in normal human plasma: 1.4 fold prolongation at 40 µM inhibitor
